test system: P388 murine leukemia cell line; test: P388 cytotoxicity (ATP-Lite, 72 hours); type: cell-based; settings: Mus musculus, P388, 72 hours
pIC50: −log10 of the molar value.
Criterion: pIC50 meeting or surpassing 7. Met: true (1). Not met: false (0).

As a guide, the following entries are already answered.
Hi, just wondering whether CCOC(=O)CNc1nc2c(c(N(C)c3ccc(OC)cc3)n1)CCCC2 shows pIC50 of 7 or higher.
false (0)

Given COc1ccc(N(C)c2nc(NCCO)nc3ccc(N)cc23)cc1 , state whether its pIC50 is at least 7.
false (0)

In plain terms: is recorded pIC50 at least 7 for CCOc1c(Cl)cc(N(C)c2nc(CCl)nc3ccccc23)cc1Cl ?
false (0)

Hi team, for Cc1nc(N(C)c2ccc(OC(F)F)cc2)c2cc(N)ccc2n1 , is the recorded pIC50 at or above 7?
true (1)

Form field: pIC50 at least 7? Entry: COc1ccc(N(C)c2nc(CN)nc3ccc(F)cc23)cc1
true (1)

More entries:
Dear colleague, could you confirm whether COc1ccc(N(C)c2nc(CN)nc3ccc(-c4ccccc4)cc23)cc1 has pIC50 at or above 7?
false (0)

Is reported pIC50 greater than or equal to 7 here: COc1ccc(N(C)c2nc(NCCN)nc3ccccc23)cc1
true (1)

Is pIC50 at least 7? Consider CCOc1ccc(N(C)c2nc(C)nc3ccc(N)cc23)cc1
true (1)

I'd appreciate it if you could say whether CNCc1nc(N(C)c2ccc(OC)cc2)c2ccccc2n1 has pIC50 at least equal to 7.
false (0)

Test whether the molecule COc1ccc(N(C)c2nc(N(C)CCO)nc3ccccc23)cc1 records pIC50 of 7 or higher.
true (1)

Could you please find out whether COc1ccc(N(C)c2nc(NCCO)nc3ccc([N+](=O)[O-])cc23)cc1 has pIC50 that meets 7 or exceeds it?
false (0)

Say whether CONc1nc2c(c(N(C)c3ccc(OC)cc3)n1)CCC2 shows pIC50 of 7 or more.
true (1)

Determine whether this molecule has pIC50 no lower than 7: COc1ccc(N(C)c2nc(OC(C)C)nc3ccccc23)cc1
true (1)

Given COc1ccc(N(C)c2nc(CNC(=O)[C@@H](C)N)nc3ccccc23)cc1 , state whether its pIC50 is at least 7.
false (0)

Given COc1ccccc1CN(C)c1nc(Cl)nc2ccccc12 , state whether its pIC50 is at least 7.
false (0)

Could you tell me if the measured pIC50 of COc1ccc(N(C)c2nc(CN)nc3ccc(Br)cc23)cc1 reaches 7 or more?
false (0)

Hi, just wondering whether COc1cccc(CN(C)c2nc(Cl)nc3ccccc23)c1 shows pIC50 of 7 or higher.
false (0)

pIC50 >= 7 for COc1ccc(N(C)c2nc(NCCCO)nc3ccccc23)cc1 ?
true (1)

Quick check, pIC50 >= 7? CNCCCNc1nc(N(C)c2ccc(OC)cc2)c2ccccc2n1
false (0)

Threshold query (pIC50 >= 7) on COc1ccc(N(C)c2nc(N(C)CCCN)nc3ccccc23)cc1
true (1)

Confirm if pIC50 reported for the molecule COc1ccc(N(C)c2nc(CN)nc3ccc(-c4ccc(Cl)cc4)cc23)cc1 is 7 or above.
false (0)

Could you verify whether the entry COc1ccc(N(C)c2nc(CNC(=O)[C@H](C)N)nc3ccccc23)cc1 shows pIC50 of no less than 7?
true (1)

Check the entry CCOc1ccc(N(C)c2nc(CN)nc3ccccc23)cc1 : does pIC50 equal or exceed 7?
true (1)

Test whether the molecule COc1ccc(N(C)c2nc(N(C)C)nc3ccccc23)cc1OC records pIC50 of 7 or higher.
true (1)

Could you verify whether the entry COc1ccc(N(C)c2nc(-c3nnn[nH]3)nc3ccccc23)cc1 shows pIC50 of no less than 7?
true (1)

---

test system: P388 murine leukemia cell line; assay: P388 cytotoxicity (ATP-Lite, 72 hours); type: cell-based; details: Mus musculus, P388, 72 hours
test_readout: pIC50
The read-out pIC50 is expressed as -log10 of concentration in moles per litre.

These recorded examples may help you get a feel for the data.
Reported pIC50 ( COc1ccc(N(C)c2nc(C)nc3ccc(N)cc23)cc1OC ) = 7.19

GET /value?item= CNc1nc2c(c(N(C)c3ccc(OC)cc3)n1)CCCCC2 &field=pIC50 returns 7.12

Now consider the entry below.
Lookup result for COC(=O)CN(C)c1nc(N(C)c2ccc(OC)cc2)c2ccccc2n1 ; measured pIC50: 6.96

The measurements presented in this section are drawn from patent US20130029942A1.
